Method description: Octanol-water distribution coefficient (logD pH 7.4) of the labeled tracer
Format: physicochemical
Experimental setup: n-octanol/PBS pH 7.4, room temperature
Method: Approximately 1 MBq of the labeled tracer was dissolved in 1 mL of a 1:1 mixture (by volumes) of phosphate buffered saline (PBS, pH 7.4) and n-octanol in an Eppendorf tube. After vigorous mixing of the suspension for 3 minutes at room temperature, the vial was centrifuged at 15000 g for 5 minutes (Biofuge 15, Heraus Sepatech, Osterode, Germany) and 100 μL aliquots of both layers were measured in a gamma counter. The experiment was repeated at least six times.
Readout label: LogDpH=7.4
Form field (numeric): enter value without unit.

Please review the entries below; each comes with its answer.
Prompt: Looking for the measured LogDpH=7.4 of C[C@@H](O)[C@H](NC(=O)C1CSSCC(NC(=O)C(Cc2ccccc2)NC(=O)[C@@H](CC(N)=O)NC(=O)C(CC(N)=O)NC(=O)[C@@H](CC(=O)O)NC(=O)C(CC(=O)O)NC(=O)[C@@H](CNC(=O)CN2CCN(CC(=O)O)CCN(CC(=O)O)CCN(CC(=O)O)CC2)NC(=O)C[N+](C)(C)Cc2ccc([Si](F)(C(C)(C)C)C(C)(C)C)cc2)C(=O)N[C@@H](Cc2ccc(O)cc2)C(=O)NC(Cc2c[nH]c3ccccc23)C(=O)N[C@@H](CCCCN)C(=O)N[C@@H]([C@@H](C)O)C(=O)N1)C(=O)O (stereo partly shown) [[Lu]48] , can you help?
Response: −2.19

Prompt: Request the reported LogDpH=7.4 associated with C[C@@H](O)[C@H](NC(=O)C1CSSCC(NC(=O)C(Cc2ccccc2)NC(=O)CNC(=O)CNC(=O)CNC(=O)C(CC(=O)O)NC(=O)[C@@H](CC(=O)O)NC(=O)C(CNC(=O)CN2CCN(CC(=O)O)CCN(CC(=O)O)CCN(CC(=O)O)CC2)NC(=O)C[N+](C)(C)Cc2ccc([Si](F)(C(C)(C)C)C(C)(C)C)cc2)C(=O)N[C@@H](Cc2ccc(O)cc2)C(=O)NC(Cc2c[nH]c3ccccc23)C(=O)N[C@@H](CCCCN)C(=O)N[C@@H]([C@@H](C)O)C(=O)N1)C(=O)O (stereo partly shown) [[Ga]50]
Response: −2.00

Prompt: Name the recorded LogDpH=7.4 for C[C@@H](O)[C@H](NC(=O)C1CSSCC(NC(=O)C(Cc2ccccc2)NC(=O)CNC(=O)CNC(=O)[C@@H](CC(=O)O)NC(=O)C(CC(=O)O)NC(=O)[C@@H](CNC(=O)CC[C@H](C(=O)O)N2CCN(CC(=O)O)CCN(CC(=O)O)CCN(CC(=O)O)CC2)NC(=O)C(CN)NC(=O)c2ccc([Si](F)(C(C)(C)C)C(C)(C)C)cc2)C(=O)N[C@@H](Cc2ccc(O)cc2)C(=O)NC(Cc2c[nH]c3ccccc23)C(=O)N[C@@H](CCCCN)C(=O)N[C@@H]([C@@H](C)O)C(=O)N1)C(=O)O (stereo partly shown) [[Lu]20] .
Response: −2.35

Now consider a different compound.
Prompt: Dear colleague, I am looking for the recorded LogDpH=7.4 of the following compound: C[C@@H](O)[C@H](NC(=O)C1CSSCC(NC(=O)C(Cc2ccccc2)NC(=O)CNC(=O)CNC(=O)[C@@H](CC(N)=O)NC(=O)C(CC(N)=O)NC(=O)[C@@H](CNC(=O)CC[C@H](C(=O)O)N2CCN(CC(=O)O)CCN(CC(=O)O)CCN(CC(=O)O)CC2)NC(=O)C(CN)NC(=O)c2ccc([Si](F)(C(C)(C)C)C(C)(C)C)cc2)C(=O)N[C@@H](Cc2ccc(O)cc2)C(=O)NC(Cc2c[nH]c3ccccc23)C(=O)N[C@@H](CCCCN)C(=O)N[C@@H]([C@@H](C)O)C(=O)N1)C(=O)O (stereo partly shown) (natGa complex, metal not drawn) [[Ga]41]
Response: −1.58
